assay: MDR1/BCRP assay: permeability in cPgp-KO-MDCK-WT cells; format: in vitro ADME; settings: dog, pH 7.4
Label 1 for high-side Papp A→B at 2 h, 1 µM (at or above 10 ×10⁻⁶ cm/s) and -1 for low-side Papp A→B at 2 h, 1 µM (below it).

{"Compound": "Cc1ncc2c(N)nc3cnc(C(=O)N4CC[C@H]5C[C@@H]4c4ccc(OC(F)(F)F)cc4O5)cc3n12 [Ff-698]", "Label": 1}
{"Compound": "Nc1nc2cnc(C(=O)N3CCC[C@@H]4Oc5cc(C(F)(F)F)ccc5[C@@H]43)cc2n2cncc12 [Ff-110]", "Label": 1}
{"Compound": "[2H]C1([2H])CC[C@@H]2Oc3cc(C(F)(F)F)ccc3[C@@H]2N1C(=O)c1cc2c(cc1F)nc(N)c1cncn12 [Ff-121]", "Label": 1}
{"Compound": "Nc1nc2ccc(C(=O)N3CCC[C@@H]4Oc5cc(C(F)(F)F)ccc5[C@@H]43)cc2n2cncc12 [Ff-111]", "Label": 1}
{"Compound": "Nc1nc2cnc(C(=O)N3CCC[C@@H]4Oc5cc(C(F)(F)F)c(F)cc5[C@@H]43)cc2n2cncc12 [Ff-115]", "Label": -1}
{"Compound": "Nc1nc2cnc(C(=O)N3CC[C@H]4C[C@@H]3c3ccc(OC(F)(F)F)cc3O4)cc2n2cncc12 [Ff-685]", "Label": 1}
{"Compound": "C[C@H]1CN(C(=O)c2cc3c(cc2F)nc(N)c2cncn23)[C@H]2c3cc(F)c(C(F)F)cc3C[C@H]2O1 (single isomer, unassigned) [Ff-173]", "Label": 1}
{"Compound": "[2H]C1([2H])CC[C@@H]2Oc3cc(C(F)(F)F)ccc3[C@@H]2N1C(=O)c1cc2c(cn1)nc(N)c1cncn12 [Fg-60]", "Label": -1}
{"Compound": "N#Cc1cc2nc(N)c3cncn3c2cc1C(=O)N1CCC[C@@H]2Oc3cc(C(F)(F)F)ccc3[C@@H]21 [Ff-346]", "Label": 1}
{"Compound": "Nc1nc2cc(F)c(C(=O)N3CCC[C@@H]4Oc5cc(C(F)(F)F)ncc5[C@@H]43)cc2n2cncc12 [Ff-117]", "Label": 1}
{"Compound": "Cc1ncc2c(N)nc3cnc(C(=O)N4CCC[C@@H]5Oc6cc(C(F)(F)F)cc(F)c6[C@@H]54)cc3n12 [Fg-67]", "Label": 1}
{"Compound": "C[C@@H]1C[C@@H]2Oc3cc(C(F)(F)F)ccc3[C@@H]2N(C(=O)c2cc3c(cn2)nc(N)c2cncn23)C1 [Ff-252]", "Label": 1}
{"Compound": "Nc1nc2cc(Cl)c(C(=O)N3CCC[C@@H]4Oc5cc(C(F)(F)F)ccc5[C@@H]43)cc2n2cncc12 [Ff-587]", "Label": -1}
{"Compound": "Nc1nc2cnc(C(=O)N3CC[C@H]4C[C@@H]3c3ccc(C(F)(F)F)cc3O4)cc2n2cncc12 [Ff-367]", "Label": 1}
{"Compound": "Nc1nc2cnc(C(=O)N3CC[C@H]4C[C@@H]3c3ccc(C(F)(F)F)c(F)c3O4)cc2n2cncc12 [Ff-684]", "Label": 1}
{"Compound": "Cc1ncc2c(N)nc3cnc(C(=O)N4CCC[C@@H]5Oc6cc(OC(F)(F)F)cc(F)c6[C@@H]54)cc3n12 [Fg-66]", "Label": 1}
{"Compound": "Nc1nc2cc(F)c(C(=O)N3CCO[C@@H]4Cc5cc(C(F)(F)F)ccc5[C@@H]43)cc2n2cncc12 (single isomer, unassigned) [Ff-82]", "Label": -1}
{"Compound": "Nc1nc2cnc(C(=O)N3CC[C@H]4C[C@@H]3c3c(F)cc(C(F)(F)F)cc3O4)cc2n2cncc12 (single isomer, unassigned) [Ff-694]", "Label": 1}
{"Compound": "Cc1ncc2c(N)nc3cc(F)c(C(=O)N4CCC[C@@H]5Oc6nc(C(F)(F)F)ccc6[C@@H]54)cc3n12 [Ff-363]", "Label": 1}
{"Compound": "Nc1nc2cnc(C(=O)N3CCC[C@@H]4Oc5cc(C(F)(F)F)cc(F)c5[C@@H]43)cc2n2cncc12 (single isomer, unassigned) [Fg-53]", "Label": 1}
{"Compound": "Nc1nc2cnc(C(=O)N3CC4(CC4)C[C@@H]4Oc5cc(C(F)(F)F)ccc5[C@@H]43)cc2n2cncc12 [Ff-648]", "Label": 1}
{"Compound": "C[C@@H]1CN(C(=O)c2cc3c(cc2F)nc(N)c2cncn23)[C@H]2c3ccc(OC(F)(F)F)cc3C[C@H]2O1 (single isomer, unassigned) [Ff-183]", "Label": 1}
{"Compound": "Cc1ncn2c1c(N)nc1cnc(C(=O)N3CCC[C@@H]4Oc5cc(C(F)(F)F)ccc5[C@@H]43)cc12 [Ff-499]", "Label": 1}
{"Compound": "Nc1nc2cnc(C(=O)N3C[C@H](F)CC4Oc5cc(C(F)(F)F)ccc5[C@@H]43)cc2n2cncc12 (mixture of isomers) [Ff-113]", "Label": 1}
{"Compound": "Nc1nc2cnc(C(=O)N3CCC[C@@H]4Oc5cc(OC(F)(F)F)cc(F)c5[C@@H]43)cc2n2cncc12 (single isomer, unassigned) [Fg-55]", "Label": -1}
